- Tested on: ICR mice
- method: Effective dose and lethal dose of intravenous administration in mice
- Assay type: in vivo
- measurement-setup: single bolus via tail vein, male ICR mice
quantity-measured: Treatment window (lethal dose/effective dose)
Give bare numbers.

Please review the following examples before continuing.
1. COC(=O)CC[C@@H]1N=C(c2ccccn2)c2cc(F)c(C)cc2-n2c(C)cnc21.Cc1ccc(S(=O)(=O)O)cc1 [Compound 1-2] : 9
2. COC(=O)CC[C@@H]1N=C(c2ccccn2)c2cc(OC)c(C)cc2-n2c(C)cnc21.Cc1ccc(S(=O)(=O)O)cc1 [Compound 1-9] : 4.3

Batch lookup, Treatment window (lethal dose/effective dose) per entry.
1. COC(=O)CC[C@@H]1N=C(c2ccccn2)c2cc(Br)ccc2-n2c(C)cnc21.O=S(=O)(O)c1ccccc1 [Remimazolam (besylate), Remimazolam, reference compound]
2. COC(=O)CC[C@@H]1N=C(c2ccccn2)c2cc(Cl)c(Cl)cc2-n2c(C)cnc21.Cc1ccc(S(=O)(=O)O)cc1 [Compound 1-12]

[A]
4.6
5

Batch lookup, Treatment window (lethal dose/effective dose) per entry.
1. CCOC(=O)CC[C@@H]1N=C(c2ccccn2)c2cc(CC)c(OC)cc2-n2c(C)cnc21.Cc1ccc(S(=O)(=O)O)cc1 [Compound 1-17]
2. COC(=O)CC[C@@H]1N=C(c2ccncc2)c2cc(F)c(C)cc2-n2c(C)cnc21.Cc1ccc(S(=O)(=O)O)cc1 [Compound 1-5]

[A]
1: 4.5; 2: 5.3

###

- Tested on: ICR mice
- method: Effective dose and lethal dose of intravenous administration in mice
- Type: in vivo
- measurement-setup: single bolus via tail vein, male ICR mice
quantity-measured: Lethal dose (dose causing animal death) (mg/kg)
Answers are plain numbers, in mg/kg.

Please review the following examples before continuing.
1) COC(=O)CC[C@@H]1N=C(c2ccccn2)c2cc(Br)ccc2-n2c(C)cnc21.Cc1ccc(S(=O)(=O)O)cc1 [Remimazolam (p-toluenesulfonate), Remimazolam, reference compound] : 220
2) COC(=O)CC[C@@H]1N=C(c2ccccn2)c2cc(F)c(C)cc2-n2c(C)cnc21.Cl : 280
3) COC(=O)CC[C@@H]1N=C(c2ccccn2)c2cc(OC)c(C)cc2-n2c(C)cnc21.Cc1ccc(S(=O)(=O)O)cc1 : 260
4) COC(=O)CC[C@@H]1N=C(c2ccccn2)c2cc(Br)c(C)cc2-n2c(C)cnc21.Cc1ccc(S(=O)(=O)O)cc1 : 380
5) CCOC(=O)CC[C@@H]1N=C(c2cccnc2)c2cc(C)c(F)cc2-n2c(C)cnc21.Cc1ccc(S(=O)(=O)O)cc1 : 280
6) COC(=O)CC[C@@H]1N=C(c2ccccn2)c2cc(C(F)(F)F)c(C)cc2-n2c(C)cnc21.Cc1ccc(S(=O)(=O)O)cc1 : 260
7) COC(=O)CC[C@@H]1N=C(c2ccccn2)c2cc(Cl)c(Cl)cc2-n2c(C)cnc21.Cc1ccc(S(=O)(=O)O)cc1 : 300
8) COC(=O)CC[C@@H]1N=C(c2ccccn2)c2cc(F)c(F)cc2-n2c(C)cnc21.Cc1ccc(S(=O)(=O)O)cc1 : 320

Batch lookup, Lethal dose (dose causing animal death) per entry.
1. COC(=O)CC[C@@H]1N=C(c2ccccn2)c2cc([N+](=O)[O-])c(C)cc2-n2c(C)cnc21.Cc1ccc(S(=O)(=O)O)cc1
2. COC(=O)CC[C@@H]1N=C(c2ccccn2)c2cc(F)c(C)cc2-n2c(C)cnc21.O=S(=O)(O)c1ccccc1
3. COC(=O)CC[C@@H]1N=C(c2cccnc2)c2cc(F)c(C(F)(F)F)cc2-n2c(C)cnc21.Cc1ccc(S(=O)(=O)O)cc1

[A]
240
320
360

Batch lookup, Lethal dose (dose causing animal death) per entry.
1. COC(=O)CC[C@@H]1N=C(c2ccccn2)c2cc(OC)c(F)cc2-n2c(C)cnc21.Cc1ccc(S(=O)(=O)O)cc1
2. COC(=O)CC[C@@H]1N=C(c2cccnc2)c2cc(F)c(C)cc2-n2c(C)cnc21.Cc1ccc(S(=O)(=O)O)cc1

[A]
[320, 280]

These measurements were taken from patent US11919905B2.
